- Experiment notes: Liver Microsome Stability Assay (monkey)
- Experimental setup: monkey liver microsomes, with NADPH, 1.0 uM compound
Endpoint: Liver Microsome Stability (Multiple Species): Monkey - % Remaining after 30 min w/NADPH (%)

compound=CNS(=O)(=O)N1CC(Oc2ccc(N3CCC[C@@H]3c3csc(NC(=O)c4cccn4Cc4ccnc(F)c4)n3)cc2)C1 measurement_unit=% endpoint_value=0.95
compound=N#Cc1cc(Cn2cccc2C(=O)Nc2nc([C@H]3CCCN3c3ccccc3)cs2)ccn1 measurement_unit=% endpoint_value=0.19
compound=CN(C)C(=O)Nc1ccc(N2CCC[C@@H]2c2csc(NC(=O)c3cccn3Cc3ccnc(F)c3)n2)cc1 measurement_unit=% endpoint_value=27.8
compound=Cc1ccc(N2CCC[C@@H]2c2csc(NC(=O)c3cccn3CC3CCOCC3)n2)cc1 measurement_unit=% endpoint_value=23.6
compound=NCc1ccc(N2CCC[C@@H]2c2csc(NC(=O)c3cccn3Cc3ccncc3)n2)cc1 measurement_unit=% endpoint_value=26

[A] CS(=O)(=O)N1CC(Oc2ccc(N3CCC[C@@H]3c3csc(NC(=O)c4cccn4Cc4ccnc(F)c4)n3)cc2)C1
[B] O=C(Nc1nc([C@H]2CCCN2c2ncccn2)cs1)c1cccn1Cc1ccncc1
[C] CN(C)c1cccc(-c2csc(NC(=O)c3cccn3Cc3ccncc3)n2)c1
Data request: Arrange the 3 compounds by rising Liver Microsome Stability (Multiple Species): Monkey - % Remaining after 30 min w/NADPH, starting with the smallest. Give the order by naming the labels one after another as requested.
Data returned: B, C, A
(B: 0.05%, C: 1.43%, A: 8.42%)

[a] O=C(Nc1nc(/C=C/c2ncc(F)cc2F)cs1)c1cccn1CC1CCOCC1 [Compound D2]
[b] O=C(Nc1nc(C2C3CN(c4ccccn4)CC32)cs1)c1cccn1Cc1ccncc1 (centres unmarked)
Data request: Could you check which of a and b has a smaller value for Liver Microsome Stability (Multiple Species): Monkey - % Remaining after 30 min w/NADPH? State the label of the item chosen.
Data returned: b

[A] O=C(Nc1nc([C@H]2CCCN2c2ccccc2)cs1)c1cccn1CC1COC1
[B] NC(=O)CCn1cnc(/C=C/c2csc(NC(=O)c3cccn3Cc3ccnc(F)c3)n2)c1
[C] O=C(Nc1nc([C@H]2CCCN2c2ccc(OC(F)(F)F)cc2)cs1)c1cccn1CC1CCOCC1
Data request: Ascending by Liver Microsome Stability (Multiple Species): Monkey - % Remaining after 30 min w/NADPH, please. Show the ranking through the labels, in the order asked for.
Data returned: A, B, C

[I] O=C(Nc1nc([C@H]2CCCN2c2ccc(-c3ncco3)cc2)cs1)c1cccn1Cc1ccncc1
[II] O=C(Nc1nc(/C=C/c2cn(C3CCCCC3)cn2)cs1)c1cccn1Cc1ccncc1
[III] O=C(Nc1nc([C@H]2CCCN2c2ccccc2)cs1)c1cccn1Cc1cccc(F)c1
[IV] O=C(Nc1nc(/C=C/c2coc(C3CCCCC3)n2)cs1)c1cccn1Cc1ccncc1
[V] O=C(Nc1nc([C@H]2CCCN2c2ccc(OC3CCN(C(=O)CO)CC3)cc2)cs1)c1cccn1Cc1ccnc(F)c1
Data request: Reorder the items by Liver Microsome Stability (Multiple Species): Monkey - % Remaining after 30 min w/NADPH, least to greatest. # format: label list in the order the request specifies
Data returned: I, IV, II, V, III

[P] CC(C)c1cccc2nc(/C=C/c3csc(NC(=O)c4cccn4Cc4ccncc4)n3)cn12
[Q] O=C(Nc1nc(/C=C/c2coc(C3CC3)n2)cs1)c1cccn1Cc1ccncc1
[R] CC(C)Oc1ccc(N2CCC[C@@H]2c2csc(NC(=O)c3cccn3Cc3ccncc3)n2)cc1
Data request: Thanks in advance: please rank these 3 entries by Liver Microsome Stability (Multiple Species): Monkey - % Remaining after 30 min w/NADPH, highest to lowest. To answer, write out the labels according to the requested order.
Data returned: R, Q, P
(R: 4.26%, Q: 2.25%, P: 0.25%)

[P] CCc1ccc(N2CCC[C@@H]2c2csc(NC(=O)c3cccn3CC3CCOCC3)n2)nc1
[Q] CC(C#N)CCn1cccc1C(=O)Nc1nc([C@H]2CCCN2c2ccccc2)cs1 (some centres unmarked)
Data request: Select one. Lower Liver Microsome Stability (Multiple Species): Monkey - % Remaining after 30 min w/NADPH: P or Q Kindly give the label for the entry you pick.
Data returned: P

Reference source: patent US20230286973A1
